# Tested on: Caco-2
# ASSAY OVERVIEW: Effect on integrity in human Caco-2 cell monolayers assessed as transepithelial resistance by epithelial voltohmmeter relative to control
# Format: ADME, cell-based
# Set-up: concentration or dose not given beside the values
Where a SMILES comes first, the peptide text is derived from it. [ ]: non-standard residue; d: D form. Leu(4,5-dehydro) = C=C(C)C[C@H](N)C(=O)O; Abu = CC[C@H](N)C(=O)O
PARAMETER: Activity (%)

Some solved entries appear below for comparison.
CC[C@H](C)[C@H](NC(=O)[C@H](CCCNC(=N)N)NC(=O)[C@@H](N)Cc1ccccc1)C(=O)NCC(=O)N[C@@H](CCCNC(=N)N)C(=O)N[C@@H](CC(C)C)C(=O)O (H-FRIGRL-OH) = 102
C=CC[C@@H](NC(=O)[C@@H](N)Cc1ccccc1)C(=O)N[C@H](C(=O)NCC(=O)N[C@@H](CCCNC(=N)N)C(=O)N[C@@H](CC(C)C)C(=O)O)[C@@H](C)CC = 130
CC[C@H](C)[C@H](NC(=O)[C@H](CCC(=O)O)NC(=O)[C@@H](N)Cc1ccccc1)C(=O)NCC(=O)N[C@@H](CCCNC(=N)N)C(=O)N[C@@H](CC(C)C)C(=O)O (H-FEIGRL-OH) = 104
CC[C@H](C)[C@H](NC(=O)[C@H](Cc1cnc[nH]1)NC(=O)[C@@H](N)Cc1ccccc1)C(=O)NCC(=O)N[C@@H](CCCNC(=N)N)C(=O)N[C@@H](CC(C)C)C(=O)O (H-FHIGRL-OH) = 102

I. C=CC[C@H](NC(=O)[C@@H](N)Cc1ccccc1)C(=O)N[C@H](C(=O)NCC(=O)N[C@@H](CCCNC(=N)N)C(=O)N[C@@H](CC(C)C)C(=O)O)[C@@H](C)CC
II. C=C(C)C[C@H](NC(=O)[C@@H](N)Cc1ccccc1)C(=O)N[C@H](C(=O)NCC(=O)N[C@@H](CCCNC(=N)N)C(=O)N[C@@H](CC(C)C)C(=O)O)[C@@H](C)CC (H-F[Leu(4,5-dehydro)]IGRL-OH)
Exercise: Please indicate which entry, I or II , has the lower recorded Activity value. Return value: the label identifying the chosen record.
Key: I

1. CC[C@H](NC(=O)[C@@H](N)Cc1ccccc1)C(=O)N[C@H](C(=O)NCC(=O)N[C@@H](CCCNC(=N)N)C(=O)N[C@@H](CC(C)C)C(=O)O)[C@@H](C)CC (H-F[Abu]IGRL-OH)
2. CC[C@H](C)[C@H](NC(=O)[C@H](CC(=O)O)NC(=O)[C@@H](N)Cc1ccccc1)C(=O)NCC(=O)N[C@@H](CCCNC(=N)N)C(=O)N[C@@H](CC(C)C)C(=O)O (H-FDIGRL-OH)
Exercise: From the recorded data, which exceeds the other in Activity: 1 or 2 ? Your choice should be expressed through its label.
Key: 2

* * *

# Tested on: Caco-2
# ASSAY OVERVIEW: Permeability from apical to basolateral side of human Caco-2 cell monolayers assessed as increase in lucifer yellow flux at 7.0 mM relative to untreated control
# Format: ADME, cell-based
# TEST CONDITIONS: caco-2, 7000 µM
Where a SMILES comes first, the peptide text is derived from it. [ ]: non-standard residue; d: D form. Leu(4,5-dehydro) = C=C(C)C[C@H](N)C(=O)O; Dab = NCC[C@H](N)C(=O)O
PARAMETER: fold change (FC)

Answered examples (2):
CC[C@H](C)[C@H](NC(=O)[C@H](CS)NC(=O)[C@@H](N)Cc1ccccc1)C(=O)NCC(=O)O (H-FCIG-OH) = 2.2
CC[C@H](C)[C@H](NC(=O)[C@H](CCN)NC(=O)[C@@H](N)Cc1ccccc1)C(=O)NCC(=O)N[C@@H](CCCNC(=N)N)C(=O)N[C@@H](CC(C)C)C(=O)O (H-F[Dab]IGRL-OH) = 2.1

A. CC[C@H](C)[C@H](NC(=O)[C@H](CCCCN)NC(=O)[C@@H](N)Cc1ccccc1)C(=O)NCC(=O)N[C@@H](CCCNC(=N)N)C(=O)N[C@@H](CC(C)C)C(=O)O (H-FKIGRL-OH)
B. C=C(C)C[C@H](NC(=O)[C@@H](N)Cc1ccccc1)C(=O)N[C@H](C(=O)NCC(=O)N[C@@H](CCCNC(=N)N)C(=O)N[C@@H](CC(C)C)C(=O)O)[C@@H](C)CC (H-F[Leu(4,5-dehydro)]IGRL-OH)
C. CC[C@H](C)[C@H](NC(=O)[C@H](CC(C)C)NC(=O)[C@@H](N)Cc1ccccc1)C(=O)NCC(=O)N[C@@H](CCCNC(=N)N)C(=O)N[C@@H](CC(C)C)C(=O)O (H-FLIGRL-OH)
Exercise: In this exercise, place the 3 molecules in ascending sequence of their recorded fold change (FC). Your task in answering is to list the labels in the requested order.
Key: A, C, B
(A: 0.4, C: 1, B: 1.9)

* * *

# System: Caco-2
# ASSAY OVERVIEW: Permeability from apical to basolateral side of human Caco-2 cell monolayers assessed as increase in lucifer yellow flux at 7.0 mM relative to untreated control
# Assay type: ADME, cell-based
# TEST CONDITIONS: caco-2, 7000 µM
Where a SMILES comes first, the peptide text is derived from it. [ ]: non-standard residue; d: D form. Phe(4-CN) = N#Cc1ccc(C[C@H](N)C(=O)O)cc1; Ala(cPr) = N[C@@H](CC1CC1)C(=O)O; 2Pal = N[C@@H](Cc1ccccn1)C(=O)O; Cha = N[C@@H](CC1CCCCC1)C(=O)O; Abu = CC[C@H](N)C(=O)O
PARAMETER: fold change (FC)

P. CC[C@H](NC(=O)[C@@H](N)Cc1ccccc1)C(=O)N[C@H](C(=O)NCC(=O)N[C@@H](CCCNC(=N)N)C(=O)N[C@@H](CC(C)C)C(=O)O)[C@@H](C)CC (H-F[Abu]IGRL-OH)
Q. CC[C@H](C)[C@H](NC(=O)[C@H](CC1CC1)NC(=O)[C@@H](N)Cc1ccccc1)C(=O)NCC(=O)N[C@@H](CCCNC(=N)N)C(=O)N[C@@H](CC(C)C)C(=O)O (H-F[Ala(cPr)]IGRL-OH)
R. CC[C@H](C)[C@H](NC(=O)[C@H](CC1CCCCC1)NC(=O)[C@@H](N)Cc1ccccc1)C(=O)NCC(=O)N[C@@H](CCCNC(=N)N)C(=O)N[C@@H](CC(C)C)C(=O)O (H-F[Cha]IGRL-OH)
S. CC[C@H](C)[C@H](NC(=O)[C@H](Cc1ccc(C#N)cc1)NC(=O)[C@@H](N)Cc1ccccc1)C(=O)NCC(=O)N[C@@H](CCCNC(=N)N)C(=O)N[C@@H](CC(C)C)C(=O)O (H-F[Phe(4-CN)]IGRL-OH)
Exercise: Parameters: sort_field (fold change (FC)), sort_dir (desc). Field: ranking. Enter the labels in the order requested.
Key: R, P, Q, S
(R: 2.1, P: 1.1, Q: 0.6, S: 0.3)

P. CC[C@H](C)[C@H](NC(=O)[C@H](Cc1ccccn1)NC(=O)[C@@H](N)Cc1ccccc1)C(=O)NCC(=O)N[C@@H](CCCNC(=N)N)C(=O)N[C@@H](CC(C)C)C(=O)O (H-F[2Pal]IGRL-OH)
Q. CC[C@H](C)[C@H](NC(=O)[C@H](CCC(=O)O)NC(=O)[C@@H](N)Cc1ccccc1)C(=O)NCC(=O)N[C@@H](CCCNC(=N)N)C(=O)N[C@@H](CC(C)C)C(=O)O (H-FEIGRL-OH)
Exercise: I'm curious whether P or Q has the smaller fold change (FC) number. Which is it? Pick one; state its label.
Key: P

* * *

# Tested on: Caco-2
# ASSAY OVERVIEW: Effect on integrity in human Caco-2 cell monolayers assessed as transepithelial resistance by epithelial voltohmmeter relative to control
# Format: ADME, cell-based
# Design: concentration or dose not given beside the values
Where a SMILES comes first, the peptide text is derived from it. [ ]: non-standard residue; d: D form. Ala(cPr) = N[C@@H](CC1CC1)C(=O)O
PARAMETER: Activity (%)

CC[C@H](C)[C@H](NC(=O)[C@H](CC1CC1)NC(=O)[C@@H](N)Cc1ccccc1)C(=O)NCC(=O)N[C@@H](CCCNC(=N)N)C(=O)N[C@@H](CC(C)C)C(=O)O (H-F[Ala(cPr)]IGRL-OH) = 111
CC[C@H](C)[C@H](NC(=O)[C@H](CC(N)=O)NC(=O)[C@@H](N)Cc1ccccc1)C(=O)NCC(=O)N[C@@H](CCCNC(=N)N)C(=O)N[C@@H](CC(C)C)C(=O)O (H-FNIGRL-OH) = 83
CC[C@H](C)[C@H](NC(=O)[C@H](Cc1ccc(O)cc1)NC(=O)[C@@H](N)Cc1ccccc1)C(=O)NCC(=O)N[C@@H](CCCNC(=N)N)C(=O)N[C@@H](CC(C)C)C(=O)O (H-FYIGRL-OH) = 118
